Measured Kd accompanies every entry in the list below.
# target.or.system: RSV postfusion F (postF), F deltaFP (respiratory syncytial virus, UniProt P03420 26-513)
# procedure.summary: BLI, IgG on sensor, 100 nM antigen
State the answer as a number, implicitly in nM.

Illustrative cases are given below, each with its answer.
- binder: "ADI-41445 (antibody, V domains shown, IgG1) VH: QVQLVQSGAEVKRPGSSVKVSCKAFGGSFSNYAINWVRQAPGQGLEWMGGISPVLGTAIYAKRFQGKVTITADKFANTAYMDLSSLRFEDTAVYYCARSPPHVEFPLTKWFDPWGQGTLVTVSS VL: EIVMTQSPGTLSLSPGERATLSCRASQSVNSGYLAWYQHKPGRAPRLLIYGASNRATGVPDRFSGSGSGTDFTLTISRLEPEDFAVYYCQQYDNSLFTFGPGTKVDIK"
  Kd / nM: 0.772
- binder: "ADI-41453 (antibody, V domains shown, IgG1; also called Ab 737) VH: QVQLVQSGAEVRKPGASVKVSCKASGYTFSIYDMNWVRQAPGQGLEWMGWMNPNSGNTGYAQKFQGRVTMTGDTSISTAYMELSSLTSEDTAVYYCAVMYGDYPGYWGQGSLVTVSS VL: SYELTQPLSVSVALGQTARITCGGNNIGSKSVHWYQQKPGQAPVLVIYRDAKRPSGIPERFSGSNSGNTATLTISGAQAGDEADYYCQVWDSNAWIFGGRTKLTVL"
  Kd / nM: 0.403

Could you now consider this next binder?
// query // fetch Kd given entry ADI-41403 (antibody, V domains shown, IgG1) VH: EVQLVESGGGLVKPGGSLRLSCAASGFTFGTYTMNWVRQAPGKGLEWVSSISSSSSHIYYADSVKGRFTISRDNARKALYLQMNSLRPEDTAVYFCARFLGDYGGDGNTYYYYYGMDVWGQGTTVTVSS VL: EIVMTQSPLSLPVTPGEPASISCRSSQSLLHSNGKNYLDWYLQKPGQSPQLLIHLGSNRASGVPDRFSGSGSGTDFTLQISRVEAEDVGVYYCMQALQTPTFGGGTKLEIK
// result 0.841

This collection of values is drawn from patent US20260258115A1.
